Taken from ChEMBL document CHEMBL4033799.

molecular target: Plasma kallikrein (Homo sapiens); assay: Inhibition of human plasma kallikrein using fluorogenic H-Pro-Phe-Arg-AMC peptide as substrate preincubated for 15 mins followed by substrate addition measured by fluorescence-based assay; settings: read-out: Ki(app)
Sequence (P03952 20-390 limits assumed): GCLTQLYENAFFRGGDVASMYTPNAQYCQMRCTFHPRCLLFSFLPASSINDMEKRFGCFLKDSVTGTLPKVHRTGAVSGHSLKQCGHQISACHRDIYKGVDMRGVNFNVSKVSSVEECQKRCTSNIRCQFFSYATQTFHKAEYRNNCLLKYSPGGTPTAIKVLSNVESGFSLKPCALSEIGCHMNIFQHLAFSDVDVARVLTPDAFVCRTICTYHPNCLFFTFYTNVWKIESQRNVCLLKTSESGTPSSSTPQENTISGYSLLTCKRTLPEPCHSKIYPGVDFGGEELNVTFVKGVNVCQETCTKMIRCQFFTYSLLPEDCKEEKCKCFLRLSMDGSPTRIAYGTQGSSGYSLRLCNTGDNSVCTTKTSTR
Sequence (P03952 391-638 limits assumed): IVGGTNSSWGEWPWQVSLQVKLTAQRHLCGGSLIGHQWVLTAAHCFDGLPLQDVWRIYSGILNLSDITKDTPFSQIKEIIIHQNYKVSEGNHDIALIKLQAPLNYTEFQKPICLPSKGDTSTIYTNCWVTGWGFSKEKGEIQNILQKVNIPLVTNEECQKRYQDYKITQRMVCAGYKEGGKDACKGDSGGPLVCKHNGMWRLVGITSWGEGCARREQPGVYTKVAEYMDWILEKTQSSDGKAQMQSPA
METRIC NAME: Ki (pM)

COMPOUND	SYSTEM UNDER TEST	MEASUREMENT UNIT	RESULT
CC[C@H](C)[C@@H]1NC(=O)[C@H](CC(=O)O)NC(=O)[C@@H]2CCCN2C(=O)[C@H](Cc2ccc(O)cc2)NC(=O)[C@H](Cc2ccc(O)cc2)NC(=O)[C@H](C(C)C)NC(=O)[C@@H]2CSCc3cc(cc(c3)CSC[C@@H](C(=O)N[C@@H](C)C(=O)N(C)CC(=O)N(C)CC(=O)N(C)CC(=O)N[C@H](CCCNC(=N)N)C(=O)N[C@H](CCCNC(=N)N)C(=O)O)NC1=O)CSC[C@H](NC(C)=O)C(=O)N[C@@H](CO)C(=O)N[C@@H](Cc1ccccc1)C(=O)N1CCC1C(=O)N[C@@H](Cc1ccc(O)cc1)C(=O)N[C@@H](CCCCNC(=N)N)C(=O)N2 (stereo partly specified)	Plasma kallikrein (Homo sapiens)	pM	250

---

biological target: Plasma kallikrein (Rattus norvegicus); assay: Inhibition of recombinant Sprague-Dawley rat plasma kallikrein using fluorogenic H-Pro-Phe-Arg-AMC peptide as substrate preincubated for 15 mins followed by substrate addition measured by fluorescence-based assay; details: read-out: Ki(app)
Sequence (P14272 20-390 limits assumed): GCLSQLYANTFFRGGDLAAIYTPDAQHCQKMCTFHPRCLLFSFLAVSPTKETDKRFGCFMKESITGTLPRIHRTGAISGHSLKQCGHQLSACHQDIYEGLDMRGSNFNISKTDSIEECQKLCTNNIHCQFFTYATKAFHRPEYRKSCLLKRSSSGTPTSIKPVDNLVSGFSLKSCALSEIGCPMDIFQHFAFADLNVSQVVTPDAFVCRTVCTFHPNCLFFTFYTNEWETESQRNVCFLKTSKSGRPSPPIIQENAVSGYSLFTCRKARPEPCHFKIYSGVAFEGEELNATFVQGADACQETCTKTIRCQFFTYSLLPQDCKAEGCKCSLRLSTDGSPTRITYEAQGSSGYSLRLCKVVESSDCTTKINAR
Sequence (P14272 391-638 limits assumed): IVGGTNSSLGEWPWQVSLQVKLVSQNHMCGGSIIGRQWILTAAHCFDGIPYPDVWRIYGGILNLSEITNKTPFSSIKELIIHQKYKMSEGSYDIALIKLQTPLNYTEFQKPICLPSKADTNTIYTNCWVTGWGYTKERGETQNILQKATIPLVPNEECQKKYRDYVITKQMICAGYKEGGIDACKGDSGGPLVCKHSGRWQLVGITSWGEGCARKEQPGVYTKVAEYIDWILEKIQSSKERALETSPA
pKi: −log10 of the molar value. *1 amine or outer side, *2 acyl side, *3 side chain or, on linkers, in order; H or OH if unused. Where a SMILES comes first, the peptide text is derived from it. Bridges are numbered along the chain shown (N, C = ends). TBMB = c1c(C[*:1])cc(C[*:3])cc1C[*:2]
Item-by-item account of pKi

COMPOUND	pKi
CC(C)C[C@@H]1NC(=O)[C@H](CC(=O)O)NC(=O)[C@H](CCC(N)=O)NC(=O)[C@H](Cc2cnc[nH]2)NC(=O)[C@H](CC(C)C)NC(=O)[C@@H]2CSCc3cc(cc(c3)CSC[C@@H](C(=O)N[C@@H](C)C(=O)O)NC1=O)CSC[C@H](NC(=O)[C@H](C)N)C(=O)N[C@@H](CO)C(=O)N[C@@H](Cc1c[nH]c3ccccc13)C(=O)N1CCC[C@H]1C(=O)N[C@@H](C)C(=O)N[C@@H](CCCNC(=N)N)C(=O)N2 (H-ACSWPARCLHQDLCA-OH; linker 2-8-14 via TBMB)	9.05
CC[C@H](C)[C@@H]1NC(=O)[C@H](CC(=O)O)NC(=O)[C@@H]2CCCN2C(=O)[C@H](Cc2ccc(O)cc2)NC(=O)[C@H](Cc2ccc(O)cc2)NC(=O)[C@H](C(C)C)NC(=O)[C@@H]2CSCc3cc(cc(c3)CSC[C@@H](C(=O)N[C@@H](C)C(=O)N(C)CC(=O)N(C)CC(=O)N(C)CC(=O)N[C@H](CCCNC(=N)N)C(=O)N[C@H](CCCNC(=N)N)C(=O)O)NC1=O)CSC[C@H](NC(C)=O)C(=O)N[C@@H](CO)C(=O)N[C@@H](Cc1ccccc1)C(=O)N1CCC1C(=O)N[C@@H](Cc1ccc(O)cc1)C(=O)N[C@@H](CCCCNC(=N)N)C(=O)N2 (some centres undefined)	8.26
CC(=O)N[C@H]1CSCc2cc3cc(c2)CSC[C@H](NC(=O)[C@H](CCCNC(=N)N)NC(=O)[C@H](Cc2ccc(O)cc2)NC(=O)[C@@H]2CCCN2C(=O)[C@H](Cc2ccccc2)NC(=O)[C@H](CO)NC1=O)C(=O)N[C@@H](CC(C)C)C(=O)N[C@@H](Cc1cnc[nH]1)C(=O)N[C@@H](CCC(N)=O)C(=O)N[C@@H](CC(=O)O)C(=O)N[C@@H](CC(C)C)C(=O)N[C@H](C(=O)O)CSC3 (Ac-CSFPYRCLHQDLC-OH; linker 1-7-13 via TBMB)	7.96
CC(=O)N[C@H]1CSCc2cc3cc(c2)CSC[C@H](NC(=O)[C@H](CCCNC(=N)N)NC(=O)[C@H](C)NC(=O)[C@@H]2CCCN2C(=O)[C@H](Cc2c[nH]c4ccccc24)NC(=O)[C@H](CO)NC1=O)C(=O)N[C@@H](CC(C)C)C(=O)N[C@@H](Cc1cnc[nH]1)C(=O)N[C@@H](CCC(N)=O)C(=O)N[C@@H](CC(=O)O)C(=O)N[C@@H](CC(C)C)C(=O)N[C@H](C(=O)O)CSC3 (Ac-CSWPARCLHQDLC-OH; linker 1-7-13 via TBMB)	8.70
